Numbers sourced from patent US20230381281A1.

# TESTED TARGET: human GCG receptor (human, UniProt P47871 26-477)
# Sequence (P47871 26-477): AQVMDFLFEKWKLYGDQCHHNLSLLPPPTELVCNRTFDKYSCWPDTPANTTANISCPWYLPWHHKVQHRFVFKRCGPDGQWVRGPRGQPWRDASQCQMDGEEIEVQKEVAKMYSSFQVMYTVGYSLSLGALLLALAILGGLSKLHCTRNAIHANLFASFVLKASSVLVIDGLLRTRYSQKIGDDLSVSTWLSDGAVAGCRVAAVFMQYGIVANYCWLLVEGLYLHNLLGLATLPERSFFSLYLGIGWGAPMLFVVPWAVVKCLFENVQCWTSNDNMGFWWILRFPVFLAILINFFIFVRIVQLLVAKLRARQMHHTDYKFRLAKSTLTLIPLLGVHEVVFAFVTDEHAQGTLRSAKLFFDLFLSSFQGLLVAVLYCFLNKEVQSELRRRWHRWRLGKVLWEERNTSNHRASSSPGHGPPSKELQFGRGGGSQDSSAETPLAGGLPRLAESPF
# METHOD NOTES: cell-based or functional assay
Bridge positions count the residues as written; N and C are the ends. Square brackets hold non-standard residues; d marks the D form. Ends that are not written are not given here. * marks the point of attachment. Acetyl(2-(4-imidazolyl)) = O=C(Cc1c[nH]cn1)*; Aib = CC(C)(N)C(=O)O
Could you mark each record YES if its In vitro activity compared to native peptide (%) vs Glucagon falls strictly under 10%, and NO if it equals or exceeds it?

BINDER	ASSIGNED LABEL
{Acetyl(2-(4-imidazolyl))}-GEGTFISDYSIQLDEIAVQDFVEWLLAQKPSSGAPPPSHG [Triple agonist of SEQ ID NO: 13]	YES
H[Aib]QGTFTSDKSKYLDERACQDFVQWLLDGGPSSGAPPPS [Triple agonist of SEQ ID NO: 40]	YES
Y[Aib]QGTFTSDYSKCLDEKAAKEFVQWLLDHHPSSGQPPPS (bridge 16-20) [Triple agonist of SEQ ID NO: 68]	YES
H[Aib]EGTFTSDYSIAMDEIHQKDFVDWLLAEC (bridge 16-20) [Triple agonist of SEQ ID NO: 54]	YES
Y[Aib]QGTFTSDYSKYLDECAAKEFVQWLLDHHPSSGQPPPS (bridge 16-20) [Triple agonist of SEQ ID NO: 64]	NO

Task: Item H[Aib]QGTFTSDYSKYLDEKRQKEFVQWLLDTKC (bridge 16-20) [Triple agonist of SEQ ID NO: 78] : In vitro activity compared to native peptide (%) vs Glucagon beneath 10%, strictly?
Result: NO

Task: Item Y[Aib]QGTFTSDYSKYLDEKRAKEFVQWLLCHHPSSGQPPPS (bridge 16-20) [Triple agonist of SEQ ID NO: 95] : In vitro activity compared to native peptide (%) vs Glucagon beneath 10%, strictly?
Result: YES

Task: Item H[Aib]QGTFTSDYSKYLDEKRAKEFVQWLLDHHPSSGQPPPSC (bridge 16-20) [Triple agonist of SEQ ID NO: 50] : In vitro activity compared to native peptide (%) vs Glucagon beneath 10%, strictly?
Result: NO

Task: Item {Acetyl(2-(4-imidazolyl))}-GEGTFISDLSKYMDEQAVQLFVEWLMAGGPSSGAPPPSHG [Triple agonist of SEQ ID NO: 12] : In vitro activity compared to native peptide (%) vs Glucagon beneath 10%, strictly?
Result: YES
